target: FL hMALT1 enzyme (Homo sapiens, UniProt Q9UDY8)
Sequence (Q9UDY8 1-824): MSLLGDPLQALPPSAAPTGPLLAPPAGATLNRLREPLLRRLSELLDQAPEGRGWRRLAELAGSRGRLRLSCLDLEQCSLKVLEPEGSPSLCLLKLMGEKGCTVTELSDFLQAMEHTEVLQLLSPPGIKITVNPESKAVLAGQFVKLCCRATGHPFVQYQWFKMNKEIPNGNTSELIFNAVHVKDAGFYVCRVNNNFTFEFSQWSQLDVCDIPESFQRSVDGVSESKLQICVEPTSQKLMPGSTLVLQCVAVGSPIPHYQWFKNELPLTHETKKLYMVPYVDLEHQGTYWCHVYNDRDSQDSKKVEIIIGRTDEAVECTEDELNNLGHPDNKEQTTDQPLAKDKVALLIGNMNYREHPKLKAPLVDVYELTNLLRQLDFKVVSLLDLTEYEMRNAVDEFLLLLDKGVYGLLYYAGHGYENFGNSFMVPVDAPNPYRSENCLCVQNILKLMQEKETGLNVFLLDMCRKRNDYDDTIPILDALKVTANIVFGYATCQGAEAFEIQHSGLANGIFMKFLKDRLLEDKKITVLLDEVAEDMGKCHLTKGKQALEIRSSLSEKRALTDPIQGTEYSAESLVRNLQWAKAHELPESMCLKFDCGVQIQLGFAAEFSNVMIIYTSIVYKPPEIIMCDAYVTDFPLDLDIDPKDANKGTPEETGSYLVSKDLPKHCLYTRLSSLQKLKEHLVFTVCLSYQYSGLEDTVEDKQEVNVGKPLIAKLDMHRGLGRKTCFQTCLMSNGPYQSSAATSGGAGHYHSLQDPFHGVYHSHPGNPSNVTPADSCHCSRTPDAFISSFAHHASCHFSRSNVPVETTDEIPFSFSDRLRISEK
run_description: biochemical
readout_label: pIC50
Please treat pIC50 as minus the base-10 logarithm of the molar concentration.

Example molecules with recorded pIC50:
{"columns": ["molecule", "test_value"],
 "data": [
  ["CN(C(=O)[C@H]1CCC(=O)NC1)[C@@H](c1ccc(NC2Cc3ccc(Cl)c(F)c3C2)cn1)C(F)(F)F (single isomer, unassigned) [Example 337]", 7.29],
  ["CC(=O)N1CCC[C@H]1C(=O)N(C)[C@@H](c1ccc(N[C@H]2Cc3ccccc3C2(C)C)cn1)C(F)(F)F (single isomer, unassigned) [Example 194]", 7.28],
  ["CN1CCCC(C(=O)N(C)[C@@H](c2ccc(NC3Cc4ccccc4C3(C)C)cn2)C(F)(F)F)C1 (single isomer, unassigned) [Example 128]", 6.40],
  ["COCCN1CCC12CC(C(=O)N(C)[C@@H](c1ccc(NC3Cc4ccccc4C3(C)C)cn1)C(F)(F)F)C2 (single isomer, unassigned) [Example 243]", 7.07],
  ["COCCN1CCC12CC(C(=O)N(C)[C@@H](c1ccc(NC3Cc4ccccc4C3(C)C)cn1)C(F)(F)F)C2 (single isomer, unassigned) [Example 242]", 6.70]
]}

Pending molecule:
# query: pIC50 | item CNC(=O)N1CC(C(=O)N(C)[C@@H](c2ccc(NC3Cc4ccccc4C3(C)C)cc2)C(F)(F)F)C1 (single isomer, unassigned) [Example 73] | system: FL hMALT1 enzyme (Homo sapiens, UniProt Q9UDY8);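 note: Cell-free protease assay: enzyme preincubated with compound 30 min at room temperature, then cleavage of fluorogenic Ac-LVSR-AMC substrate (100 µM) tracked by fluorescence (ex 360/em 460 nm)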
8.15
